species: Rattus norvegicus; assay: Open TG-GATES - Regimen: Single; type: toxicity, organism-based, Sprague-Dawley; design: regimen Single, gender Male, age 6 weeks; conditions: in vivo, po, 0 mg/kg, 24 h, tissue Plasma, route gavage, dose level Control
measurementName: GLC (mg/dL)
Please state the figure in mg/dL; there is no need to write the unit.

• CCN(CC)N=O = 208
• O=C(O)COc1nn(Cc2ccccc2)c2ccccc12 = 194.2
• CC[C@@H](CO)NCCN[C@@H](CC)CO = 199
• CC(C)Cc1ccc(C(C)C(=O)O)cc1 (configuration not stated) = 198.8
• CC(=O)N1CCN(c2ccc(OCC3COC(Cn4ccnc4)(c4ccc(Cl)cc4Cl)O3)cc2)CC1 (configuration not stated) = 185.6

Sure, the documented GLC for CC(CCc1ccccc1)NCC(O)c1ccc(O)c(C(N)=O)c1 (configuration not stated) is 182.2

Sure, the documented GLC for `CC(=O)Nc1ccc2c(c1)Cc1ccccc1-2` is 214.6
